FYI, the data here is from the Human Domainome abundance scans (Beltran et al. 2025).

B1: Androgen receptor, residues 557 to 632; numbered along this chain, P10275 (parent)
chain: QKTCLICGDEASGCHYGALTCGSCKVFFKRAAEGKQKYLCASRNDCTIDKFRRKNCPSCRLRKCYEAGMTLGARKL

Variants of: B1
Procedure details: abundance fitness (aPCA) (normalised: wild type 0, dead -1); higher = more abundant; growth selection in yeast, the domain comes from the species named
Conditions: Homo sapiens
Result type: abundance fitness

- K25F: -0.062
- A41M: -0.186
- R52L: -0.044
- S23H: -0.036
- Y65W: -0.044
- C4Y: -0.884
- A18W: -1.07
- Y65D: -0.17
- D9V: -0.201
- S23D: -0.069
- A73M: -0.18
- T47G: -0.079
- Q36T: -0.173
- L71T: 0.073
- Y38V: -0.092
- C21G: -0.976
- T20C: 0.002
- C40P: -0.756
- A31G: -0.086
- S12C: -0.305
- G17P: -0.691
- A31T: 0.025
